Assay: Cytotoxicity against human QSG7701 cells after 24 hrs by MTT assay
Type: cell-based
Conditions: QSG7701, 24 h
Quantity Measured: pIC50
Quick note: pIC50 values are minus log10 of concentrations in mol/L.

Some solved cases for reference:
[[record]]
chemical_smiles = "C[C@@H]1C[C@]2(C[C@@H](C)[C@@]3(CC[C@@]4(C)C5=CC[C@H]6C(C)(C)[C@H](O)CC[C@]6(C)[C@@H]5CC[C@@]43C)O2)OC1=O"
quantity_measured = "pIC50"
value_observed = 4.75

[[record]]
chemical_smiles = "C[C@@H]1C[C@@H](C[C@@H](C)[C@@]2(O)CC[C@@]3(C)C4=C(CC[C@@]32C)[C@@]2(C)CCC(=O)C(C)(C)[C@@H]2CC4)OC1=O"
quantity_measured = "pIC50"
value_observed = 4.43

[[record]]
chemical_smiles = "C[C@H](CC(=O)C[C@@H](C)[C@]1(C)CC=C2C3=CC[C@H]4C(C)(C)[C@H](O)CC[C@]4(C)[C@@H]3CC[C@]21C)C(=O)O"
quantity_measured = "pIC50"
value_observed = 4.37

[[record]]
chemical_smiles = "C[C@@H]1C[C@@]2(C[C@@H](C)[C@@]3(CC[C@@]4(C)C5=CC[C@H]6C(C)(C)[C@H](O)CC[C@]6(C)[C@@H]5CC[C@@]43C)O2)OC1=O"
quantity_measured = "pIC50"
value_observed = 4.75

[[record]]
chemical_smiles = "C[C@@H]1C[C@]2(C[C@@H](C)[C@@]3(CC[C@@]4(C)C(=O)[C@@]5(CC[C@@]43C)[C@@H](O)C[C@H]3C(C)(C)C(=O)CC[C@@]35C)O2)OC1=O"
quantity_measured = "pIC50"
value_observed = 5.09


Continue with the next molecule.
// COc1cccc2c1C(=O)c1c(O)c3c(c(O)c1C2=O)C[C@@](O)(C(=O)CO)C[C@@H]3O[C@H]1C[C@H](N)[C@H](O)[C@H](C)O1 : pIC50 value = 5.54

Data credit: ChEMBL document CHEMBL3351347
